Where these numbers come from: ChEMBL document CHEMBL1909046

# TEST: DRUGMATRIX: Calcium Channel Type L, Phenylalkylamine radioligand binding (ligand: [3H] (-)-Desmethoxyverapamil (D-888))
# Type: cell membranes, Rattus norvegicus, Wistar, Brain, Membrane
# SETTINGS: Not Active = under 50% inhibition at 10 µM
REPORTED ENDPOINT: IC50

Worked examples follow.
COMPOUND: C[C@](N)(Cc1ccc(O)c(O)c1)C(=O)O [METHYLDOPA]
IC50: Not Active
//
COMPOUND: c1ccc(Nc2ccc(Nc3ccccc3)cc2)cc1
IC50: Not Active
//
COMPOUND: CNNCc1ccc(C(=O)NC(C)C)cc1 [PROCARBAZINE]
IC50: Not Active
//
COMPOUND: Cc1onc(O)c1CC(N)C(=O)O (racemic) [(R,S)-AMPA]
IC50: Not Active
//
COMPOUND: Nc1nc(N)nc(-c2cc(Cl)ccc2Cl)n1.O=C(O)/C=C\C(=O)O [IRSOGLADINE MALEATE]
IC50: Not Active

Task: // fetch IC50 given entry CCOc1ccc(NC(C)=O)cc1 [PHENACETIN]
Output: Not Active
